Target: FGFR3 (UniProt P22607)
Sequence (P22607 whole entry, looked up): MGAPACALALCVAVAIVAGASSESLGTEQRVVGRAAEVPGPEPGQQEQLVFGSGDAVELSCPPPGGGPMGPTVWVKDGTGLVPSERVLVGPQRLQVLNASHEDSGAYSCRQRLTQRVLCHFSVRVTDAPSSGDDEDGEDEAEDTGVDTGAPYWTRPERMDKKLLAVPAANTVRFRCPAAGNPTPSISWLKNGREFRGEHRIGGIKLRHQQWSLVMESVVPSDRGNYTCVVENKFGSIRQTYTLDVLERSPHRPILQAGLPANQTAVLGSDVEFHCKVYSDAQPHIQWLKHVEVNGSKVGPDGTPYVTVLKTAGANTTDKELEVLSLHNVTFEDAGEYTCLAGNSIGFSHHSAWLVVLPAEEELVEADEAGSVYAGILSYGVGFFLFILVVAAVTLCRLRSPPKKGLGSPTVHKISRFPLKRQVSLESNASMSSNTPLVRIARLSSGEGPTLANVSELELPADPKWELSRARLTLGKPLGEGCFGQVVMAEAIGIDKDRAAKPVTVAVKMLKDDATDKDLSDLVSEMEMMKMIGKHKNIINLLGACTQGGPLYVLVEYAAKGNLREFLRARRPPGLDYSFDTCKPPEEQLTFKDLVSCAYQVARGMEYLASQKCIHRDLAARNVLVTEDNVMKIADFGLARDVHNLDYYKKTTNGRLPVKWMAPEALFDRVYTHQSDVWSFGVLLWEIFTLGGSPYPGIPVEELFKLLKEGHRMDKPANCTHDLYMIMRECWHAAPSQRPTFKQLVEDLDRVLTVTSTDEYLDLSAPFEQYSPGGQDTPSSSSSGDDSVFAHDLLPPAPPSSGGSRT
Experiment: phosphorylation enrichment, bacterial display (enrichment ratio); higher = better substrate or ligand; peptides without Tyr show the background
Measurement kind: phosphorylation enrichment
API note: the answer field is a bare number with no unit suffix.

Biosequence	Measurement kind	Reported measurement
EAAFVYAISSA [WNT4_Y113]	phosphorylation enrichment	0.749
STSKTYVISRT [RBBP6_Y87]	phosphorylation enrichment	0.498
IKNPQYFSDAC [NTRK1_Y496_E492K]	phosphorylation enrichment	0.591

Consider the additional sequence presented here.
The value of phosphorylation enrichment measured for the sequence PADQAYSWYQH [NDST1_Y711_R709Q] turned out to be 3.15

====

Each entry below lists one item and its recorded phosphorylation enrichment value.
Biological target: Fyn (UniProt P06241)
Sequence (P06241 whole entry, looked up): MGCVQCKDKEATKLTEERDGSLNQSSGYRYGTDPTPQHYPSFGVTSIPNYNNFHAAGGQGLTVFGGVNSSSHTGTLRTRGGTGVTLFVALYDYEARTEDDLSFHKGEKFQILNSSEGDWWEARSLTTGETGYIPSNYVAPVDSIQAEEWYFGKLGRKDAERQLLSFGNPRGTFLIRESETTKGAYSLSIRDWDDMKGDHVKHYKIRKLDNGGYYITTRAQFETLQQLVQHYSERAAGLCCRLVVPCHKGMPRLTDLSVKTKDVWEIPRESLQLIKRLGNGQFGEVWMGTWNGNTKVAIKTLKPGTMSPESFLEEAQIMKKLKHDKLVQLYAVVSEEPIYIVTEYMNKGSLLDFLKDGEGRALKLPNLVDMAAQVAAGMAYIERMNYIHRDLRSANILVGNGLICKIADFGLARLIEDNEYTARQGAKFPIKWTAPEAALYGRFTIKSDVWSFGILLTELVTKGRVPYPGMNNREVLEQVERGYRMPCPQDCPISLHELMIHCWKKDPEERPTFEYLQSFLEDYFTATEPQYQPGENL
Test: phosphorylation enrichment, bacterial display (enrichment ratio); higher = better substrate or ligand; peptides without Tyr show the background
API note: the answer field is a bare number with no unit suffix.

The value of phosphorylation enrichment measured for the sequence RKLASYRSCLL [DHX37_Y1080] turned out to be 0.515

The value of phosphorylation enrichment measured for the sequence KDAGDYKFKAK [LRIT3_Y326_C328Y_YF] turned out to be 0.322

The value of phosphorylation enrichment measured for the sequence YRASYYRRGDR [LTK_Y677] turned out to be 0.534

The value of phosphorylation enrichment measured for the sequence CSEEMYRLMLQ [RET_Y981] turned out to be 0.606

The value of phosphorylation enrichment measured for the sequence CPYNLYAEQFS [HGD_Y40_L44F] turned out to be 3.86

The value of phosphorylation enrichment measured for the sequence DPADRYLIEQC [CDKL5_Y286_T288I] turned out to be 0.51

The value of phosphorylation enrichment measured for the sequence AASHRYDLGGL [QPRT_Y162] turned out to be 0.352

====

Target: Fes (UniProt P07332)
Sequence (P07332 whole entry, looked up): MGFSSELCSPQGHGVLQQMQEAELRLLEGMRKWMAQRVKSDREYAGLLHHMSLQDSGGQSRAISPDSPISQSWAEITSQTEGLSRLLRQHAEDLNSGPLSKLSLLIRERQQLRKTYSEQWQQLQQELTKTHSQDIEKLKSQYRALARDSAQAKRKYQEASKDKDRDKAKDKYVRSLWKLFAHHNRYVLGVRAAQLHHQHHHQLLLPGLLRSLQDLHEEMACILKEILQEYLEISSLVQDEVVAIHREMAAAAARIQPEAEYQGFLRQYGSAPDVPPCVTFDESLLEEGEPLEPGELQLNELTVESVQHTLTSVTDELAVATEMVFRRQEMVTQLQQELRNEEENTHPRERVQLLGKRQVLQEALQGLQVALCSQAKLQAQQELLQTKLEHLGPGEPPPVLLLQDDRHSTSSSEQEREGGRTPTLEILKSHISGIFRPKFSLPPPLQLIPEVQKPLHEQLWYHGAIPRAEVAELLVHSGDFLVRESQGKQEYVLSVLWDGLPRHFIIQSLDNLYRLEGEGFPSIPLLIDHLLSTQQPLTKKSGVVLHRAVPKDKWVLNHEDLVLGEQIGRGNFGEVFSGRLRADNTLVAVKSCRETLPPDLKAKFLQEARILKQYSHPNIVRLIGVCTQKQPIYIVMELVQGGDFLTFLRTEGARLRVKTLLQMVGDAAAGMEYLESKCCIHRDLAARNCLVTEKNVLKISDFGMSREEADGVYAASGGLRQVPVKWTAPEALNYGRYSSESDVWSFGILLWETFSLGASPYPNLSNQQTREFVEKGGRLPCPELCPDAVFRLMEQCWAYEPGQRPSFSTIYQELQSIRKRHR
Test: phosphorylation enrichment, bacterial display (enrichment ratio); higher = better substrate or ligand; peptides without Tyr show the background
Measurement kind: phosphorylation enrichment
API note: the answer field is a bare number with no unit suffix.

// known answers, use as guide
Biosequence	phosphorylation enrichment
EFGSGYPNDPK [RNASEH2A_Y210_D205E_YF]	0.875
FIILIYAMKKK [SLCO1B1_Y645_YF]	0.583
TLLERYGMIEI [ACSF3_Y355_T358I]	1.06

Value sought: phosphorylation enrichment, system Fes (UniProt P07332), item PTTKTYFPHFF [HBA1_Y43_D48Y_YF] . Result: 0.584

Value sought: phosphorylation enrichment, system Fes (UniProt P07332), item DLDLTYIYPNI [PTEN_Y27] . Result: 0.871

Value sought: phosphorylation enrichment, system Fes (UniProt P07332), item YCIDHYLGKEM [G6PD_Y202_R198C] . Result: 0.827

Value sought: phosphorylation enrichment, system Fes (UniProt P07332), item GANSEYIIAEK [ECHS1_Y35_F33S] . Result: 1.01

Value sought: phosphorylation enrichment, system Fes (UniProt P07332), item TRSYDYTEGGD [FGF7_Y58_M59T] . Result: 0.976

Value sought: phosphorylation enrichment, system Fes (UniProt P07332), item FGRTFYNQANM [MCCC2_Y196_I200N] . Result: 1.06

====

Target: Fes (UniProt P07332)
Assay: phosphorylation enrichment, bacterial display (enrichment ratio); higher = better substrate or ligand; peptides without Tyr show the background
Measurement kind: phosphorylation enrichment

// known answers, use as guide
Biosequence	phosphorylation enrichment
PGDGEYFTLQI [TP53_Y327_L323G]	1.57
SSSAIYDNPDL [DCP1B_Y191_N195D]	1.07
WLQKLYNNFVN [MYO5C_Y526]	1.4
KNDSIYVVKGN [KIT_Y823_N822I]	0.647
QTEAEYRFIYM [PTPN11_Y511_Q510E]	1.86

The value of phosphorylation enrichment measured for the sequence LDLPGYCPLRE [CCDC116_Y291] turned out to be 1.97

The value of phosphorylation enrichment measured for the sequence MGGSVYFSFPD [HIKESHI_Y55_YF] turned out to be 1.32

The value of phosphorylation enrichment measured for the sequence CGTPDNIAPEI [PRKCG_Y521_Y521N] turned out to be 1.49

The value of phosphorylation enrichment measured for the sequence YGGRDYSLDEF [MYOF_Y1705] turned out to be 1.1

The value of phosphorylation enrichment measured for the sequence TVLWLYTGTRP [UGT1A1_Y337_R336L] turned out to be 1.27

The value of phosphorylation enrichment measured for the sequence CGQDPYIRELG [UROS_Y19] turned out to be 1.27

====

System: Fer (mouse)
Experiment: phosphorylation enrichment, bacterial display (enrichment ratio); higher = better substrate or ligand; peptides without Tyr show the background
Measurement kind: phosphorylation enrichment
API note: the answer field is a bare number with no unit suffix.

// known answers, use as guide
Biosequence	Tgt	phosphorylation enrichment
RRGTRYMFSRP [RPL21_Y13]	Fer (mouse)	0.887
LNWIFYKDQTG [RS1_Y166_YF]	Fer (mouse)	0.54
LTTEAYEWEPR [ELMOD3_Y61]	Fer (mouse)	1.07

Consider the additional sequence presented here.
The value of phosphorylation enrichment measured for the sequence PEVSGYCHYAD [TG_Y234_C237Y] turned out to be 1.1

====

Molecular target: c-Src SH2
Assay: SH2 binding enrichment of the phosphorylated peptide, bacterial display (enrichment ratio); higher = better substrate or ligand; peptides without Tyr show the background
Decision: SH2 binding enrichment compared against 0.7; not below it gives MET, below it gives NOT MET.

Worked examples, 3 sequences total:
Biosequence	Assigned class
FGPPQYNIQFS [ERBB2IP_Y977_YF]	NOT MET
GASRRYGSGVS [NEU1_Y242_W240R]	NOT MET
KVMANYVYKAG [MAML2_Y513_M514V]	MET

q: Hi, just wondering whether SFPPTYRYERG [INPPL1_Y661] shows SH2 binding enrichment of 0.7 or higher.
a: NOT MET

q: Hi, just wondering whether IETGKYEILTE shows SH2 binding enrichment of 0.7 or higher.
a: MET

====

Target: Hck (UniProt P08631)
Sequence (P08631 whole entry, looked up): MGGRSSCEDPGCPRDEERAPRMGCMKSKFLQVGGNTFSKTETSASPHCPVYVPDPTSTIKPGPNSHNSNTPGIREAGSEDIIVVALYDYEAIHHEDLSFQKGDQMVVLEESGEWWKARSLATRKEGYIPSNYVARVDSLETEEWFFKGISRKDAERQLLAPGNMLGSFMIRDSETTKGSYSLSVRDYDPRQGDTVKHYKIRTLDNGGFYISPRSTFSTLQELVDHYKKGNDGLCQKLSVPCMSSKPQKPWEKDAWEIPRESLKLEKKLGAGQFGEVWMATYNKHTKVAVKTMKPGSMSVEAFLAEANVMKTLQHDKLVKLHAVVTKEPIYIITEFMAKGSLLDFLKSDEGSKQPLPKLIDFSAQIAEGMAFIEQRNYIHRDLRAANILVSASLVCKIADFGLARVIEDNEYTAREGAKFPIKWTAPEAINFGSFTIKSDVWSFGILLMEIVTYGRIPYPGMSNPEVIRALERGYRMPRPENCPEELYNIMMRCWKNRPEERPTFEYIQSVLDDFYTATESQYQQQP
Test: phosphorylation enrichment, bacterial display (enrichment ratio); higher = better substrate or ligand; peptides without Tyr show the background
Decision: phosphorylation enrichment compared against 0.6; not below it gives MET, below it gives NOT MET.

Biosequence	Assigned class
LSSLAYSGKDA [FXN_Y205]	NOT MET
CTTIHYDFMCN [TP53_Y234_N235D_YF]	MET
LMVFEYMRHGD [NTRK1_Y591]	MET
ITRDEYPSNPM [CEMIP2_Y1015]	NOT MET
GRPLSYWLTGC [LYZL6_Y140_F139S]	NOT MET

q: Hi, just wondering whether IAAEFYDNLPH [DEGS1_Y284_YF] shows phosphorylation enrichment of 0.6 or higher.
a: MET

q: Hi, just wondering whether FLLRVYSIFSK [SGCE_Y38_T36R] shows phosphorylation enrichment of 0.6 or higher.
a: NOT MET

q: Hi, just wondering whether RGRSTCYWPRP [GAGE12J_Y9_Y9C] shows phosphorylation enrichment of 0.6 or higher.
a: MET

q: Hi, just wondering whether HKANEYFPVVI [ADAMTS18_Y764_L769I_YF] shows phosphorylation enrichment of 0.6 or higher.
a: NOT MET

q: Hi, just wondering whether ACCLLYCGDVV [TUBA4A_Y319_R320C] shows phosphorylation enrichment of 0.6 or higher.
a: MET

q: Hi, just wondering whether FASTGYGIAIQ [GRIN2B_Y762] shows phosphorylation enrichment of 0.6 or higher.
a: NOT MET

q: Hi, just wondering whether KDAGDYKFKAK [LRIT3_Y326_C328Y_YF] shows phosphorylation enrichment of 0.6 or higher.
a: NOT MET

====

Molecular target: Hck (UniProt P08631)
Assay: phosphorylation enrichment, bacterial display (enrichment ratio); higher = better substrate or ligand; peptides without Tyr show the background
Measurement kind: phosphorylation enrichment
API note: the answer field is a bare number with no unit suffix.

// known answers, use as guide
Biosequence	phosphorylation enrichment
LAGRYYALRSM [CKB_Y174_K177R]	0.708
LDYNEYFRDLN [HPRT1_Y198]	0.661
AVIADYMFWLG [SPATA16_Y290_M286V]	1.34
SDVCMYRKNTY [SYNE2_Y570_I574T]	0.487
VFPATYHPDHW [EFCAB12_Y544_YF]	0.421
VGGRIYIDDGL [PKLR_Y218]	0.463

The value of phosphorylation enrichment measured for the sequence HQIQSYTCEID [DES_Y331] turned out to be 0.675

====

Molecular target: Grb2 SH2 (UniProt P62993)
Sequence (P62993 whole entry, looked up): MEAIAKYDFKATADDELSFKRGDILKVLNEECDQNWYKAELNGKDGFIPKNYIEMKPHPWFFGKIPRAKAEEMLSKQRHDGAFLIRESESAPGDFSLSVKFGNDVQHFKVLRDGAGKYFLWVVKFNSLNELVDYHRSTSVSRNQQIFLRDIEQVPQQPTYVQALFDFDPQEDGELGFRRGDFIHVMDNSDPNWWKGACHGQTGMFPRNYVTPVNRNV
Experiment: SH2 binding enrichment of the phosphorylated peptide, bacterial display (enrichment ratio); higher = better substrate or ligand; peptides without Tyr show the background
Each entry below lists one item and its recorded SH2 binding enrichment value.
API note: the answer field is a bare number with no unit suffix.

// known answers, use as guide
Biosequence	SH2 binding enrichment
LGEGSYGKVKE [STK11_Y60]	0.669
TRHDEYLEVTK [MAP1A_Y2217]	1.15
PTFKHYANSTQ [SLC12A3_Y70_E68K_YF]	0.671
IGHHAYGDQFR [IDH1_Y135_R132H_YF]	0.885
VLALWYYYLTN [ZDHHC23_Y127_H132N]	1.24
AFPVSYSSSSA [RET_Y687_G691S]	0.8

The value of SH2 binding enrichment measured for the sequence KLVQLYGVCTK [BTK_Y461] turned out to be 1.07

This collection of values is drawn from the supplement of paper PMC10065799.
